Ref: patent US20210130436A1

target: T1, human PD-L1 expressed on CHO cells (human, UniProt Q9NZQ7 19-290); experiment: flow cytometry, CHO cells stably expressing PD-L1, Fc fusion at 33.3 nM
T1 construct: whole, on cells; Target on CHO cells stably expressing PD-L1; also called huPD-L1
T1 sequence (Q9NZQ7 19-290): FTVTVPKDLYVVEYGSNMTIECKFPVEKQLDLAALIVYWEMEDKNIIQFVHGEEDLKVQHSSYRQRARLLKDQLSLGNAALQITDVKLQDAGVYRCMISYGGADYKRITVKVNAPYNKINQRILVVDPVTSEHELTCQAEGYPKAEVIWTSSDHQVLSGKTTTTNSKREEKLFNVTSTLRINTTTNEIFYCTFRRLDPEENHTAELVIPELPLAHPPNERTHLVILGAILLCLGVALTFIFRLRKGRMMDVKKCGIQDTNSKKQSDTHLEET
Can you tell me MFI at 33.3 nM for the items I'm about to list?
Supply the numeric figure in MFI, leaving out any unit text.

Asked: Which MFI at 33.3 nM value belongs to CD80 E35D/M47V/N48K IgV-Fc (Fc fusion, not shown: small tags and cut ends; a dimerising Fc or GST) VIHVTKEVKEVATLSCGHNVSVEELAQTRIYWQKDKKMVLTMMSGDVKIWPEYKNRTIFDITNNLSIVILALRPSDEGTYECVVLKYEKDAFKREHLAEVTLSVKAD ?
Given back: 4850

Asked: Which MFI at 33.3 nM value belongs to CD80 E35D/M47V/N48K/V68M/L85Q IgV-Fc (Fc fusion, not shown: small tags and cut ends; a dimerising Fc or GST) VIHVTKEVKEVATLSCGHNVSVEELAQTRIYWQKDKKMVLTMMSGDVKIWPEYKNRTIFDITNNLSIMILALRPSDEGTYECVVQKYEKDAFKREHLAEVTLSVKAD ?
Given back: 10500

Asked: Which MFI at 33.3 nM value belongs to CD80 E35D/M47V/V68M IgV-Fc (Fc fusion, not shown: small tags and cut ends; a dimerising Fc or GST) VIHVTKEVKEVATLSCGHNVSVEELAQTRIYWQKDKKMVLTMMSGDVNIWPEYKNRTIFDITNNLSIMILALRPSDEGTYECVVLKYEKDAFKREHLAEVTLSVKAD ?
Given back: 16600

Asked: Which MFI at 33.3 nM value belongs to CD80 N48K/V68M/K89N IgV-Fc (Fc fusion, not shown: small tags and cut ends; a dimerising Fc or GST) VIHVTKEVKEVATLSCGHNVSVEELAQTRIYWQKEKKMVLTMMSGDMKIWPEYKNRTIFDITNNLSIMILALRPSDEGTYECVVLKYENDAFKREHLAEVTLSVKAD ?
Given back: 11500

Asked: Which MFI at 33.3 nM value belongs to CD80 E35D/M47V/V68M/L85Q/K89N IgV-Fc (Fc fusion, not shown: small tags and cut ends; a dimerising Fc or GST) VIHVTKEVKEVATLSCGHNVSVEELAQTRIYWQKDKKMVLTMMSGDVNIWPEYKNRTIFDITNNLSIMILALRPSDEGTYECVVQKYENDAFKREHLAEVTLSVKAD ?
Given back: 12100

Asked: Which MFI at 33.3 nM value belongs to CD80 E35D/M47V/K89N IgV-Fc (Fc fusion, not shown: small tags and cut ends; a dimerising Fc or GST) VIHVTKEVKEVATLSCGHNVSVEELAQTRIYWQKDKKMVLTMMSGDVNIWPEYKNRTIFDITNNLSIVILALRPSDEGTYECVVLKYENDAFKREHLAEVTLSVKAD ?
Given back: 4340

Asked: Which MFI at 33.3 nM value belongs to CD80 M47V/N48K/V68M/K89N IgV-Fc (Fc fusion, not shown: small tags and cut ends; a dimerising Fc or GST) VIHVTKEVKEVATLSCGHNVSVEELAQTRIYWQKEKKMVLTMMSGDVKIWPEYKNRTIFDITNNLSIMILALRPSDEGTYECVVLKYENDAFKREHLAEVTLSVKAD ?
Given back: 23700

Asked: Which MFI at 33.3 nM value belongs to CD80 E35D/M47V/N48K/K89N IgV-Fc (Fc fusion, not shown: small tags and cut ends; a dimerising Fc or GST) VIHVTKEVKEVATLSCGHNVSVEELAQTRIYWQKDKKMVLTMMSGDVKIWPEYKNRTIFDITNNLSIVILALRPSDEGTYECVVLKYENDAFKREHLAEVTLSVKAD ?
Given back: 6670

Asked: Which MFI at 33.3 nM value belongs to CD80 E35D/M47V/V68M/K89N IgV-Fc (Fc fusion, not shown: small tags and cut ends; a dimerising Fc or GST) VIHVTKEVKEVATLSCGHNVSVEELAQTRIYWQKDKKMVLTMMSGDVNIWPEYKNRTIFDITNNLSIMILALRPSDEGTYECVVLKYENDAFKREHLAEVTLSVKAD ?
Given back: 21800

Asked: Which MFI at 33.3 nM value belongs to CD80 E35D/N48K/K89N IgV-Fc (Fc fusion, not shown: small tags and cut ends; a dimerising Fc or GST) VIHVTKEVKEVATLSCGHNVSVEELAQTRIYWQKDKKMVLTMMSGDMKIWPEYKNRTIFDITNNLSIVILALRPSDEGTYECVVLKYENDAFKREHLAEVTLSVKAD ?
Given back: 5770

Asked: Which MFI at 33.3 nM value belongs to CD80 E35D/D46V/M47V/N48K/V68M IgV-Fc (Fc fusion, not shown: small tags and cut ends; a dimerising Fc or GST) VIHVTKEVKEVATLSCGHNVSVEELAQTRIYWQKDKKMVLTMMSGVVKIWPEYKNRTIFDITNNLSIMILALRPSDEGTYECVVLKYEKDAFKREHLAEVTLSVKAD ?
Given back: 25900

Asked: Which MFI at 33.3 nM value belongs to CD80 M47V/V68M/K89N IgV-Fc (Fc fusion, not shown: small tags and cut ends; a dimerising Fc or GST) VIHVTKEVKEVATLSCGHNVSVEELAQTRIYWQKEKKMVLTMMSGDVNIWPEYKNRTIFDITNNLSIMILALRPSDEGTYECVVLKYENDAFKREHLAEVTLSVKAD ?
Given back: 11800

Asked: Which MFI at 33.3 nM value belongs to CD80 E35D/M47V/N48K/V68M IgV-Fc (Fc fusion, not shown: small tags and cut ends; a dimerising Fc or GST) VIHVTKEVKEVATLSCGHNVSVEELAQTRIYWQKDKKMVLTMMSGDVKIWPEYKNRTIFDITNNLSIMILALRPSDEGTYECVVLKYEKDAFKREHLAEVTLSVKAD ?
Given back: 23500

Asked: Which MFI at 33.3 nM value belongs to CD80 E35D/M47V/N48K/V68M/K89N IgV-Fc (Fc fusion, not shown: small tags and cut ends; a dimerising Fc or GST) VIHVTKEVKEVATLSCGHNVSVEELAQTRIYWQKDKKMVLTMMSGDVKIWPEYKNRTIFDITNNLSIMILALRPSDEGTYECVVLKYENDAFKREHLAEVTLSVKAD ?
Given back: 14800

Asked: Which MFI at 33.3 nM value belongs to CD80 E35D/D46V/M47V/V68M/L85Q IgV-Fc (Fc fusion, not shown: small tags and cut ends; a dimerising Fc or GST) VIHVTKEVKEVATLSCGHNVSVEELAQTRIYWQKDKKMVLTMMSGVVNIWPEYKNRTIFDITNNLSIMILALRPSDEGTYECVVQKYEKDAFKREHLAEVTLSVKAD ?
Given back: 26300

Asked: Which MFI at 33.3 nM value belongs to CD80 N48K/V68M IgV-Fc (Fc fusion, not shown: small tags and cut ends; a dimerising Fc or GST) VIHVTKEVKEVATLSCGHNVSVEELAQTRIYWQKEKKMVLTMMSGDMKIWPEYKNRTIFDITNNLSIMILALRPSDEGTYECVVLKYEKDAFKREHLAEVTLSVKAD ?
Given back: 754
